The reported numbers originate from patent US10314883B2.

System: thoracodorsal arteries (TDA)
Assay: Pressure myography of TDAs electroporated with Panx1 WT or YLK>AAA plasmid
Type: cell-based, mouse
Conditions: Mus musculus, TDAs from Cre^+/Panx1^FL, no tamoxifen, electroporated without plasmid; read-out: EC50 of phenylephrine-induced constriction
measuredAttribute: EC50 (µM)
Answers are plain numbers, in µM.

// returns reported EC50 for input CNC[C@H](O)c1cccc(O)c1
0.64

* * *

System: thoracodorsal arteries (TDA)
Test: tissue or blood
Details: Mus musculus, read-out: EC50 of agonist for TDA constriction, TDAs from Cre^+/Panx1^FL mice, tamoxifen-injected (SMC Panx1 knockout)
measuredAttribute: pEC50
Give bare numbers, as −log10 of the molar value.

Value sought for every listed compound: pEC50.
1. NC[C@H](O)c1ccc(O)c(O)c1 [Noradrenaline, noradrenaline]
2. CNC[C@H](O)c1cccc(O)c1 [Phenylephrine, phenylephrine]
3. NCCc1c[nH]c2ccc(O)cc12 [Serotonin]

4.30
5.11
7.85

* * *

Test system: thoracodorsal arteries (TDA)
Assay: tissue or blood
Settings: Mus musculus, read-out: EC50 of agonist for TDA constriction, TDAs from Cre^+/Panx1^WT mice, tamoxifen-injected
Can you tell me EC50 for the items I'm about to list?
Give bare numbers, in nM.

// returns reported EC50 for input CNC[C@H](O)c1cccc(O)c1 [Phenylephrine, phenylephrine]
1790

Next molecule: NC[C@H](O)c1ccc(O)c(O)c1 [Noradrenaline, noradrenaline]
6780

Now for another entry.
// returns reported EC50 for input NCCc1c[nH]c2ccc(O)cc12 [Serotonin]
40.7

* * *

Tested on: thoracodorsal arteries (TDA)
Test: Pressure myography of TDAs electroporated with Panx1 WT or YLK>AAA plasmid
Assay type: cell-based, mouse
Conditions: Mus musculus, TDAs from Cre^+/Panx1^FL with tamoxifen, electroporated without plasmid; read-out: EC50 of phenylephrine-induced constriction
measuredAttribute: pEC50
One number for each entry, as −log10 of the molar value.

What measured pEC50 is associated with CNC[C@H](O)c1cccc(O)c1 on thoracodorsal arteries (TDA)?
5.95
